Test system: KM 20L2
Experiment Description: in vitro colon cancer cell growth inhibition (NCI screen)
Note to self: values exactly at -5 M are 1. So cytotoxicity log GI50 at or above -5 M is 1, below is -1.

Please review the following examples before continuing.
INSERT INTO assay_data (molecule_smiles, category_label) VALUES
  ('O=C1c2ccccc2C(=O)c2[nH]c(Cc3ccccc3F)nc21', 1),
  ('Cc1nc2c(n1CCN(C)C)C(=O)c1ccccc1C2=O', -1),
  ('CC(=O)NC1=C(NCCO)C(=O)c2ccccc2C1=O', 1);

Please turn your attention to the following entry.
Q. Please tell me: is the molecule "CC(=O)NC1=C(NCC(C)C)C(=O)c2ccccc2C1=O" at or over -5 M in terms of cytotoxicity log GI50?
A. 1

----------
Test system: MCF7/ADR-RES
Experiment Description: in vitro breast cancer cell growth inhibition (NCI screen)
Note to self: values exactly at -5 M are Condition met. So cytotoxicity log GI50 at or above -5 M is Condition met, below is Condition not met.

Please review the following examples before continuing.
INSERT INTO assay_data (molecule_smiles, category_label) VALUES
  ('COC(=O)CCCC(=O)NC1=C(NCc2ccccc2)C(=O)c2ccccc2C1=O', 'Condition met'),
  ('CCNC1=C(NC(=O)c2ccc(F)cc2)C(=O)c2ccccc2C1=O', 'Condition met'),
  ('CCNC1=C(NC(=O)c2ccc(OC)cc2)C(=O)c2ccccc2C1=O', 'Condition met'),
  ('Cc1nc2c(n1CCCl)C(=O)c1ccccc1C2=O', 'Condition met'),
  ('COc1ccc(C(=O)NC2=C(Cl)C(=O)c3ccccc3C2=O)cc1', 'Condition not met'),
  ('COc1cc(OC)cc(C(=O)NC2=C(Cl)C(=O)c3ccccc3C2=O)c1', 'Condition not met'),
  ('O=C(NC1=C(Cl)C(=O)c2ccccc2C1=O)c1ccccc1', 'Condition met'),
  ('CCCc1nc2c(n1CC)C(=O)c1ccccc1C2=O', 'Condition met'),
  ('CCNC1=C(NC(=O)c2ccccc2)C(=O)c2ccccc2C1=O', 'Condition met');

Please turn your attention to the following entry.
Q. Please tell me: is the compound "CCNC1=C(NC(=O)CC)C(=O)c2ccccc2C1=O" at or over -5 M in terms of cytotoxicity log GI50?
A. Condition met

----------
Tested on: NCI-H266
Experiment Description: in vitro non-small cell lung cancer cell growth inhibition (NCI screen)
Note to self: values exactly at -5 M are y. So cytotoxicity log GI50 at or above -5 M is y, below is n.

Please review the following examples before continuing.
INSERT INTO assay_data (molecule, target_or_test_system, category_label) VALUES
  ('CCC(c1ccc(F)cc1)c1nc2c(n1CC)C(=O)c1ccccc1C2=O (centres unmarked)', 'NCI-H266', 'y'),
  ('CCc1nc2c(n1CC)C(=O)c1ccccc1C2=O', 'NCI-H266', 'y'),
  ('COc1ccc(C(=O)NC2=C(Cl)C(=O)c3ccccc3C2=O)cc1', 'NCI-H266', 'n'),
  ('O=C(NC1=C(Cl)C(=O)c2ccccc2C1=O)c1ccccc1', 'NCI-H266', 'y'),
  ('CC(=O)NC1=C(NC(C)(C)C)C(=O)c2ccccc2C1=O', 'NCI-H266', 'y'),
  ('CC(=O)NC1=C(NCC(C)C)C(=O)c2ccccc2C1=O', 'NCI-H266', 'y'),
  ('O=C(NC1=C(Cl)C(=O)c2ccccc2C1=O)c1ccc(F)cc1', 'NCI-H266', 'n');

Please turn your attention to the following entry.
Q. Please tell me: is the molecule "CCn1c(CCl)nc2c1C(=O)c1ccccc1C2=O" at or over -5 M in terms of cytotoxicity log GI50?
A. n
